Target: human RXFP1 (Homo sapiens)
Construct: expressed in transfected cells
Test: RXFP1 cAMP assay (hRXFP1 HEK293 cAMP assay, HTRF)
Assay type: cell-based
Conditions: HEK293 cells stably expressing human RXFP1, 30 min at room temperature, read-out: cAMP hRXFP1 HEK293 Assay EC50
pEC50: −log10 of the molar value.
Readout type: pEC50

Compound	pEC50
COc1ccc([C@@]2(O)CO[C@@H]3[C@@H](O)CO[C@@H]32)cc1C(=O)N[C@H]1[C@@H](C(=O)Nc2ccc(F)c(C(F)(F)F)c2)[C@H]2CC[C@@H]1/C2=C\C1CC1	5.98
COc1c(F)cc(C2=NOC(C)(CO)C2)cc1C(=O)N[C@H]1[C@@H](C(=O)N[C@H](C)C2(C)CC2)[C@H]2CC[C@@H]1/C2=C\C1CC1 (some centres unmarked)	8.60

[a] COc1ccc(-c2cc(C(OC(=O)NC3CC4(CC4)C3)C(F)(F)F)ccc2F)cc1C(=O)N[C@@H]1C2CCC(/C2=C/C2CC2)[C@@H]1C(=O)Nc1ccc(F)c(C(F)(F)F)c1 (some centres unmarked)
[b] COc1ccc(-c2cc(C(OC(=O)Nc3ccccc3)C(F)(F)F)ccc2F)cc1C(=O)N[C@@H]1C2CCC(/C2=C/C2CC2)[C@@H]1C(=O)Nc1ccc(F)c(C(F)(F)F)c1 (single isomer, unassigned) [compound 229]
[c] COc1ccc(Br)cc1C(=O)N[C@@H]1C2CCC(/C2=C/c2ccccc2)[C@@H]1C(=O)Nc1ccc(F)c(C(F)(F)F)c1 (some centres unmarked)
Descending sort on pEC50 required. A complete answer lists every label in the requested sequence.
a, b, c

###

Target: human RXFP1 (Homo sapiens, UniProt Q9HBX9)
Construct: expressed in transfected cells
Sequence (Q9HBX9 whole entry): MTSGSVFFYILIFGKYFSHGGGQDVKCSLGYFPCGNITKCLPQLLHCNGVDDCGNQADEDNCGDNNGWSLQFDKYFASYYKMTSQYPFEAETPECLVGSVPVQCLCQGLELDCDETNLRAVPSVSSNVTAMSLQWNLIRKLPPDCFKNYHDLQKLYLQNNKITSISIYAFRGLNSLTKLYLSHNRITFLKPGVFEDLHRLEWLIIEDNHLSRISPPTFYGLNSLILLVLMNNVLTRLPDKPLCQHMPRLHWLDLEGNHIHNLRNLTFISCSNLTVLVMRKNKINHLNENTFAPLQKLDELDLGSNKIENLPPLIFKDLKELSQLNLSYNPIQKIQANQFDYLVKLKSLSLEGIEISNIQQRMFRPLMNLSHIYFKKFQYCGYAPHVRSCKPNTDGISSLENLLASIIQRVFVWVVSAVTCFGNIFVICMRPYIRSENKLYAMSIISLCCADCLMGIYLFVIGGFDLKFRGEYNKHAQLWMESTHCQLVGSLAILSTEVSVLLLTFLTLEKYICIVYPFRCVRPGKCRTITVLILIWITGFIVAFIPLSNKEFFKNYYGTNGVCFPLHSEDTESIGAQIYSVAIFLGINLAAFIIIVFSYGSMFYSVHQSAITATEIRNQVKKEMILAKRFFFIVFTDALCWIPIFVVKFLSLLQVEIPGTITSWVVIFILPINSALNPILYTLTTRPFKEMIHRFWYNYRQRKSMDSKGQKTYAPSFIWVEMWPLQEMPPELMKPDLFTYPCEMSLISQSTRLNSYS
Assay: RXFP1 cAMP assay (hRXFP1 HEK293 cAMP assay, HTRF)
Assay type: cell-based
Settings: HEK293 cells stably expressing human RXFP1, 30 min at room temperature, read-out: cAMP hRXFP1 HEK293 Assay EC50
Readout type: EC50 (nM)

Compound	Study system	Unit abbrev	EC50
COc1cc(F)c(F)cc1C(=O)N[C@@H]1C2CCC(/C2=C\c2ccccc2)[C@]1(F)C(=O)Nc1ccc(F)c(C(F)(F)F)c1 (stereo partly drawn)	human RXFP1 (Homo sapiens, UniProt Q9HBX9)	nM	3000

[A] COc1ccc(-c2ccc3[nH]cc(C(=O)O)c3c2)cc1C(=O)N[C@@H]1C2CCC(/C2=C/C(F)(F)F)[C@@H]1C(=O)Nc1ccc(F)c(C(F)(F)F)c1 (stereo partly drawn)
[B] COc1cc(F)c(C2=NOC3COCC23)cc1C(=O)N[C@@H]1C2CCC(/C2=C/C2CC2)[C@@H]1C(=O)Nc1ccc(F)c(C(F)(F)F)c1 (stereo partly drawn)
Name the one with the greater EC50 value, either A or B as given. The response must carry the label of the picked entry.
A

###

Molecular target: human RXFP1 (Homo sapiens, UniProt Q9HBX9)
Construct: expressed in transfected cells
Assay: RXFP1 cAMP assay (hRXFP1 HEK293 cAMP assay, HTRF)
Assay type: cell-based
Conditions: HEK293 cells stably expressing human RXFP1, 30 min at room temperature, read-out: cAMP hRXFP1 HEK293 Assay EC50
pEC50: −log10 of the molar value.
Readout type: pEC50

Molecule	pEC50
COc1ccc(C2=NOC3CS(=O)(=O)CC23)cc1C(=O)N[C@@H]1C2CCC(/C2=C/C2CC2)[C@@H]1C(=O)Nc1ccc(F)c(C(F)(F)F)c1 (single isomer, unassigned) [compound 444]	6.39

[A] COc1ccc(C2=NOC(CO)C2)cc1C(=O)N[C@H]1[C@@H](C(=O)Nc2ccc(F)c(C(F)(F)F)c2)[C@H]2CC[C@@H]1/C2=C\C1CCC1 (mixture of isomers)
[B] COc1ccc(C2=NOC3COCC23)cc1C(=O)N[C@@H]1C2CCC(/C2=C/C2CC2)[C@@H]1C(=O)Nc1ccc(F)c(OC(F)(F)F)c1 (some centres unmarked)
Please tell me which of the two, A or B , has the higher reported pEC50 value. Label of pick, please.
B
(B: 8.24, A: 7.80)

[1] COc1ccc(C2=NOC3CC(C(C)O)CC23)cc1C(=O)N[C@H]1[C@@H](C(=O)Nc2ccc(F)c(C(F)(F)F)c2)[C@H]2CC[C@@H]1/C2=C\C1CC1 (some centres unmarked) [compound 844]
[2] COC(=O)NC(C(=O)O)c1ccc(F)c(-c2ccc(OC)c(C(=O)N[C@@H]3C4CCC(/C4=C/C(F)(F)F)[C@@H]3C(=O)Nc3ccc(F)c(C(F)(F)F)c3)c2)c1 (some centres unmarked) [compound 185]
So which one has the bigger pEC50 here, 1 or 2 ? # answer = label of selected item
1

Data provenance is patent US20250221966A1.
